- System: Huh-7 cells carrying a HCV genotype 1a replicon
- assayRemarks: Cytotoxicity combination studies with Compound 4, MacSynergy II
- details: in combination with Compound 4, mean ± standard deviation
measurementLabel: Antagonism Volume (cytotoxicity) (nM^2%)
Give the quantity in nM^2%, number only.

Example entries begin here.
COC(=O)N[C@H](C(=O)N1CC2(CC2)C[C@H]1c1ncc(-c2ccc3c(c2)C(F)(F)c2cc(-c4ccc5nc([C@@H]6[C@H]7CC[C@H](C7)N6C(=O)[C@@H](NC(=O)OC)C(C)C)[nH]c5c4)ccc2-3)[nH]1)C(C)C [Compound 6] ... 0
COc1ccc2c(O[C@@H]3C[C@H]4C(=O)N[C@]5(P(=O)(O)Cc6c(F)cccc6F)C[C@H]5CCCCCCC[C@H](NC(=O)OC5CCCC5)C(=O)N4C3)cc(-c3csc(NC(C)C)n3)nc2c1Cl [Compound 2] ... 0
CC1=CC[C@H](C(=O)N(c2cc(C#CC(C)(C)C)sc2C(=O)O)[C@H]2CC[C@](O)(CO[C@H]3CCOC3)CC2)CC1 [Compound 5] ... −10
CC[C@@H]1C[C@]1(NC(=O)[C@@H]1C[C@@H](Oc2cc(-c3csc(NC(C)C)n3)nc3c(Cl)c(OCCN4CCOCC4)ccc23)CN1C(=O)[C@@H](NC(=O)O[C@@H]1C[C@@H]2C[C@@H]2C1)C(C)(C)C)C(=O)O [Compound 3] ... 0

Field: next compound
# lookup: Antagonism Volume (cytotoxicity) of Fc1ccccc1-c1nc2ccn(Cc3ccc(-c4ccc(C(F)(F)F)cc4C(F)(F)F)nn3)cc-2n1 [Compound 1] 0
